- System: K4 kissing-loop RNA reporter;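 also: bound reporter read as fluorescence of individual clusters on recovered sequencing chips by microscopy, with normalized cluster intensities fitted with a binding model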
- assay info: apparent KD of K4 kissing-loop reporter; higher = weaker reporter binding
- protocol conditions: Eterna round: R107; input ligand: FMN 200 uM
# if value of apparent KD of K4 kissing-loop reporter reaches 500 nM, tag 1 (yes); if it stays below, tag 0 (no)

1) CAUAUCAGAUAAGGAUAUAUGGCUCCUCGAGUCCAGUGAUGUUGGGCAACGUUUCAGUGGUGGAUUAUAGAAGGUAUUCACAGAC [theeternabot_sameState_KL_FMN_B_9]; 0 (no)
2) ACGCUAGCUACCGAAAGGUAGCUAGCGAGUGAGGAUAUGUGGAAACACAGAAGGCACAGCGCAGUGAUGUUGUGCGGCGAAAGCC [whbob_SS_FMNA__2th166]; 0 (no)
3) UUAUAUUUUAUAUUUAGUAGAGCUCUCGCUCGAGGACCGGUACGGCCGCCACUCGAGUGAUGUUCGAGUGGGAGAGCUCUACAUU [AK3.3 EXC Tryptophan A]; 0 (no)
4) CGGAUGUAGUGAUGUUAUAUUAGAUGUAGACGAGGACCGGUACGGCCGCCACUCGAAACGGCUACUAGCGCGUUGCGAGGUGUGC [ExTryptoA.CJ]; 1 (yes)
5) UUUGUAUCGGGAAGGAGCGUGAAUGAUAAUGAAUAUAGUGAUGUUAUAUAUAAGAACGAAUCACAGGUAGGUCGCCCGGAUGACU [SSArgB.O]; 1 (yes)

Hi team, for AGUGUUAGGUUAGAUACCAGCCGUUCGUGAAUAAUCCUCGAACCGCCAGUGAUGUUGGCAGGCCCUUGGCAGCUAACAGAACAGA [Maxeusla] , is the recorded apparent KD of K4 kissing-loop reporter at or above 500 nM?
0 (no)

---

- Tested on: MS2 coat protein
- assay info: apparent KD of MS2 coat protein; designed switch direction (-1 OFF switch, 1 ON switch): -1; higher = weaker reporter binding
- protocol conditions: Eterna round: R95; input ligand: FMN 200 uM
# if value of apparent KD of MS2 coat protein reaches 0.02 µM, tag label 1; if it stays below, tag label 0

1. CUCCUCAUGGCGCCUAAACACAUGAGGAUCACCCAUGUACAGGCUUUUUGCCGUCUUAUAAUAAAACCGAGGAUACG [Raaen] (puzzle: Sensor v3, turn-off variant 1); label 1
2. AAUAAACAUGAGGAUCACCCAUGUGAGGAUAUCCAAAUAAAUAAUAAAAUAAAUAAAAGGAGAAGGCACAAUAA [JMF most obvious solution 2] (puzzle: Exclusion 1); label 1

Hi team, for CCGCAAAUUGAGGAUAUCGUAUCGGAUACGAUACGAGAAGGCGAAACAUGAGGAUCACCCAUGUGUCCUAGCGG [Fiskers Ex 6 - 33] (puzzle: Exclusion 6) , is the recorded apparent KD of MS2 coat protein at or above 0.02 µM?
label 0

Hi team, for AGAAAUGCCCAUGGCCGCAAGCUUCUUGCUUGUCUUACCACAUGAGGAUCACCCAUGUGACAUGGGCUCCUUAUAAU [Xeceenqu] (puzzle: Sensor v3, turn-off variant 2) , is the recorded apparent KD of MS2 coat protein at or above 0.02 µM?
label 0

Hi team, for AUGAGCAGACGGAGAUCCAACAUGAGGAUCACCCAUGUCUCAUAAGCUUUUUGUUCAUCUUAUUGUACCUUGGUGCA [Mat - Sensor v3 - turn-off var 1 - JL Mod - D25] (puzzle: Sensor v3, turn-off variant 1) , is the recorded apparent KD of MS2 coat protein at or above 0.02 µM?
label 1

Hi team, for ACAAGCUUUUUGUUCGUCUUAUAAUAAUAAAUAAAUAUAACAUGAGGAUCACCCAUGUUAAGAAGACAACCUCAUGU [Sesor Array 25 - Jieux - Sensor v3, turn-off variant 2] (puzzle: Sensor v3, turn-off variant 2) , is the recorded apparent KD of MS2 coat protein at or above 0.02 µM?
label 1

Hi team, for AAAAAACAAGGAUAUACUAAAAAAAAAUGUGUUAAUUUUUCACAUGAGGAUCACCCAUGUAGAAGGUGUUAAAA [JR_Exclusion2_Sub006] (puzzle: Exclusion 2) , is the recorded apparent KD of MS2 coat protein at or above 0.02 µM?
label 1

Hi team, for AAUACUAACACGAAAGUGUUAGUACAAUAAGCUUGUGGUACAUGAGGAUCACCCAUGUCCUCAUAAGCUCGUCUUAU [Mat - Sensor v3 - Turn-off var 2 - D41] (puzzle: Sensor v3, turn-off variant 2) , is the recorded apparent KD of MS2 coat protein at or above 0.02 µM?
label 1

Hi team, for AAUAAUAGGGAGGAUAUCGUAUCGGAAACGAUACGAGAAGGUCUAACAUGAGGAUCACCCAUGUUCCUCAAUAA [Fiskers Ex 6 - 5] (puzzle: Exclusion 6) , is the recorded apparent KD of MS2 coat protein at or above 0.02 µM?
label 1

Reference source: the supplement of paper PMC9170038
